Hello, the source for this data is patent US20250215012A1, in case you need it.

experimental system: IKZF2 (Homo sapiens (Human), UniProt Q96SW2+Q9UKS7)
Sequence (Q9UKS7 whole entry): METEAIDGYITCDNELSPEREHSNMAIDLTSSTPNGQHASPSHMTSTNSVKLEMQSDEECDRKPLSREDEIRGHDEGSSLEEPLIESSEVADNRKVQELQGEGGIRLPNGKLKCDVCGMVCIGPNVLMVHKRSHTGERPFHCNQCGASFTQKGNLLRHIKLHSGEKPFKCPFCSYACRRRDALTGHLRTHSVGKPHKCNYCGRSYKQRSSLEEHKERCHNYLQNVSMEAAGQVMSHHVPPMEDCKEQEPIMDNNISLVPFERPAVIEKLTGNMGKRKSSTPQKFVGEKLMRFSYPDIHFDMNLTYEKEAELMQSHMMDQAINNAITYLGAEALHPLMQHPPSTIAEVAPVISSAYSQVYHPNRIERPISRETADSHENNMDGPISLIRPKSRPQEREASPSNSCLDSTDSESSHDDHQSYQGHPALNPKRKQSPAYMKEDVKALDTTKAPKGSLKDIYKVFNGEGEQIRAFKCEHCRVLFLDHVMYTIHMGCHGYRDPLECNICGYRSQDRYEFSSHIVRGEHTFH
Sequence (Q96SW2 whole entry): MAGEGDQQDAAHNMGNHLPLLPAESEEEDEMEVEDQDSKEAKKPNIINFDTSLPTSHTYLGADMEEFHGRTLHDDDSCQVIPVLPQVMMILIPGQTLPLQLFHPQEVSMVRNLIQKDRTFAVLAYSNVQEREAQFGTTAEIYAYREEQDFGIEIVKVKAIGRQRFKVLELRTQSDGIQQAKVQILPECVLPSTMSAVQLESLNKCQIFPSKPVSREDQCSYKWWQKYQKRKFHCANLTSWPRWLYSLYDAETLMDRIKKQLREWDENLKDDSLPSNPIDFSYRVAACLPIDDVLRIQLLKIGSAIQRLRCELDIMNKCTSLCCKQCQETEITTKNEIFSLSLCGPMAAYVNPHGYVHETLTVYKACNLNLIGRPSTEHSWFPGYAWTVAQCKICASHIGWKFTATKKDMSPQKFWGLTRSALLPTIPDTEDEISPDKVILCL
Sequence (Q16531 whole entry partner): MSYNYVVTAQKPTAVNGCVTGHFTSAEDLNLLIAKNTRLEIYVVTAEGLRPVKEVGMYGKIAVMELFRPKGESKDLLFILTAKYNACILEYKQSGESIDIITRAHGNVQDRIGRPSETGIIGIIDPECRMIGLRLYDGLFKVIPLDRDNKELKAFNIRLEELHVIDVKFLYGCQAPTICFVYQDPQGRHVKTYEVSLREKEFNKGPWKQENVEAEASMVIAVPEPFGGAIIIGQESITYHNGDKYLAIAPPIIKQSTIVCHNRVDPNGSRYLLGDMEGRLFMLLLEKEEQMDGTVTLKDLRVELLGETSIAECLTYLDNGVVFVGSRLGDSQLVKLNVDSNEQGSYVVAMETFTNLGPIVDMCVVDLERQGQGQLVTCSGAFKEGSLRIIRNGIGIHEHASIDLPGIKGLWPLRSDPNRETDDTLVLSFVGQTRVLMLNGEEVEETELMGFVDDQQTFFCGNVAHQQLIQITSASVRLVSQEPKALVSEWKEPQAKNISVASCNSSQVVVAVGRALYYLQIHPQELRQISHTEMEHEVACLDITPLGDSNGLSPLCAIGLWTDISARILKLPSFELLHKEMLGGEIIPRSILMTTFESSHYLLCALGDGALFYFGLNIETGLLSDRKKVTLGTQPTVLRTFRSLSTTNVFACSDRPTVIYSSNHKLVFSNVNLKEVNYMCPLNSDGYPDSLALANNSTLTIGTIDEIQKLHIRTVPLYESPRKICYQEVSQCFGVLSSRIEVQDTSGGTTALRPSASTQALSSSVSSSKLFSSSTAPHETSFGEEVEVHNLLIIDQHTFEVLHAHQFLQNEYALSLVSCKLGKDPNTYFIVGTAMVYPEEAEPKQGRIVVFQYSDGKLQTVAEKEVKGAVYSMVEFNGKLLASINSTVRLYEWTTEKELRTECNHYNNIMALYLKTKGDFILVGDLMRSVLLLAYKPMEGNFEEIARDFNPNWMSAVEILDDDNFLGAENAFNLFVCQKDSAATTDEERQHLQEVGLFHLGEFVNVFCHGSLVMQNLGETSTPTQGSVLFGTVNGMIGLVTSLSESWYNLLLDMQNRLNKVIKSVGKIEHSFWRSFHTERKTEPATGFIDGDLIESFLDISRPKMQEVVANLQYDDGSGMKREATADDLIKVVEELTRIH
test name: IKZF2 HiBit Assay (HEK293T Flp-in-HiBiT cells)
Type: cell-based
condition set: HEK293T Flp-in-HiBiT cells, 6 hrs; read-out: IKZF2 HiBit degradation DC50
Below is a list of entries, each paired with its recorded DC50 value.

[
  {
    "molecule": "[2H]C([2H])(c1cccc(-c2cnn(C([2H])([2H])[2H])c2)c1)N1CCC2(COc3c2ccc2c3CN([C@H]3CCC(=O)NC3=O)C2=O)C(F)(F)C1 (stereo partly drawn) [Compound B48]",
    "DC50": "< 1 nM"
  },
  {
    "molecule": "Cn1cc(-c2cccc(CN3CCC4(COc5c4ccc4c5CN([C@H]5CCC(=O)NC5=O)C4=O)C(F)(F)C3)c2)cn1 (stereo partly drawn) [Compound B39]",
    "DC50": "< 1 nM"
  },
  {
    "molecule": "O=C1CC[C@H](N2Cc3c(ccc4c3OCC43CCN(Cc4cnn(CC5CCOCC5)c4)CC3)C2=O)C(=O)N1 [Compound B6]",
    "DC50": "1 to 10 nM"
  },
  {
    "molecule": "O=C1CC[C@H](N2Cc3c(ccc4c3OCC43CCN(Cc4cnn(-c5ccc(Cl)cc5)c4C(F)(F)F)CC3)C2=O)C(=O)N1 [Compound B1]",
    "DC50": "1 to 10 nM"
  },
  {
    "molecule": "N#Cc1ccc(-n2cc(CN3CCC4(COc5c4ccc4c5CN([C@H]5CCC(=O)NC5=O)C4=O)C(F)(F)C3)cn2)cc1 (stereo partly drawn) [Compound B27]",
    "DC50": "1 to 10 nM"
  },
  {
    "molecule": "O=C1CC[C@H](N2Cc3c(ccc4c3OCC43CCN(Cc4ccc5c(c4)C(=O)NC5)CC3(F)F)C2=O)C(=O)N1 (stereo partly drawn) [Compound B31]",
    "DC50": "1 to 10 nM"
  }
]
